Each entry below lists one item and its recorded log10(Kd) value.
# study.system: GDP-bound KRAS wild-type protein (Homo sapiens, UniProt P01116)
# Sequence (P01116 whole entry): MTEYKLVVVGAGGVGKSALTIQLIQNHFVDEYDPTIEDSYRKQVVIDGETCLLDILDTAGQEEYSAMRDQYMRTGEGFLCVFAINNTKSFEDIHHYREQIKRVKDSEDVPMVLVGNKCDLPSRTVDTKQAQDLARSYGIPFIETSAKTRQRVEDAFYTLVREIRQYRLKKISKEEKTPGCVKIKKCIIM
# procedure.text: Binding to KRAS by surface plasmon resonance (SPR), Single Cycle Kinetics
# condition.parameters: SPR, Single Cycle Kinetics, GDP-bound KRAS wild-type protein; read-out: KRAS KD
result.type: log10(Kd) (log10 of the value in nM)

# compound, log10(Kd)
rows = [
    ("CCO[C@@H]1C[C@H]2C(=O)NC3(CCC3)C(=O)N(C)[C@@H](C3CCCC3)C(=O)N(C)[C@H](C(=O)N3CCOCC3)CC(=O)N(C)[C@@H](CC(C)C)C(=O)N[C@@H]([C@@H](C)CC)C(=O)N(C)CC(=O)N(C)[C@H]3CCCCCN(C3=O)[C@@H](Cc3ccc(F)c(C)c3)C(=O)N(C)CC(=O)N[C@@H](CCc3cc(F)c(C(F)(F)F)c(F)c3)C(=O)N2C1 [PP0922]", -0.30),
    ("CCO[C@@H]1C[C@H]2C(=O)NC3(CCC3)C(=O)N(C)[C@@H](C3CCCC3)C(=O)N(C)[C@H](C(=O)N(C)C)CC(=O)N(C)[C@@H](CC(C)C)C(=O)N[C@@H]([C@@H](C)CC)C(=O)N3CC[C@H]3C(=O)N(C)[C@H]3C[C@@H](C)CCN(C3=O)[C@@H](Cc3ccc(C(F)(F)F)cc3)C(=O)N(C)CC(=O)N[C@@H](CCc3cc(F)c(C(F)(F)F)c(F)c3)C(=O)N2C1 [PP1019]", -1.26),
    ("CCCN(C)C(=O)[C@@H]1CC(=O)N(C)[C@@H](CC(F)F)C(=O)N[C@@H]([C@@H](C)CC)C(=O)N(C)CC(=O)N(C)[C@H]2C/C=C\\CCN(C2=O)[C@@H](Cc2ccc(C(F)(F)F)cc2)C(=O)N(C)CC(=O)N[C@@H](CCc2ccc(C(F)(F)F)c(OC)c2)C(=O)N2C[C@@H](C)C[C@H]2C(=O)NC2(CC(C)(C)C2)C(=O)N(C)[C@@H](C2CCCC2)C(=O)N1C [PP1989]", -0.72),
    ("CC[C@H](C)[C@@H]1NC(=O)[C@H](CC(C)C)N(C)C(=O)C[C@@H](C(=O)N2CCOCC2)N(C)C(=O)[C@H](C2CCCC2)N(C)C(=O)C2(CCC2)NC(=O)[C@@H]2C[C@@H](OCC(C)C)CN2C(=O)[C@H](CCc2cc(F)c(C(F)(F)F)c(F)c2)NC(=O)CN(C)C(=O)[C@H](Cc2ccc(C(F)(F)F)cc2)N2CCCC[C@@H](C2=O)N(C)C(=O)CN(C)C1=O [PP1160]", -1.49),
    ("CC[C@H](C)[C@@H]1NC(=O)[C@H](CC(C)C)N(C)C(=O)C[C@@H](C(=O)N2CCOCC2)N(C)C(=O)[C@H](C2CCCC2)N(C)C(=O)C2(CCC2)NC(=O)[C@@H]2[C@@H](OCC3CCCC3)CCN2C(=O)[C@H](CCc2cc(F)c(C(F)(F)F)c(F)c2)NC(=O)CN(C)C(=O)[C@H](Cc2ccc(C(F)(F)F)cc2)N2CCCC[C@@H](C2=O)N(C)C(=O)CN(C)C1=O [PP1073]", -0.44),
    ("CCO[C@H](C)[C@@H]1NC(=O)[C@H](CC(C)C)N(C)C(=O)C[C@@H](C(=O)N(C)CC)N(C)C(=O)[C@H](C2CCCC2)N(C)C(=O)C2(CC(C)(C)C2)NC(=O)[C@@H]2C[C@H](C)CN2C(=O)[C@H](CCc2ccc(C(F)(F)F)c(OC)c2)NC(=O)CN(C)C(=O)[C@H](Cc2ccc(C)cc2)N2CC/C=C\\C[C@@H](C2=O)N(C)C(=O)[C@@H]2CCCN2C1=O [PP2419]", 0.30),
]

* * *

# study.system: GDP-bound KRAS wild-type protein (Homo sapiens)
# procedure.text: Binding to KRAS by surface plasmon resonance (SPR), Single Cycle Kinetics
# condition.parameters: SPR, Single Cycle Kinetics, GDP-bound KRAS wild-type protein; read-out: KRAS KD
Where a SMILES comes first, the peptide text is derived from it. Bridges are numbered along the chain shown (N, C = ends). [ ]: non-standard residue; d: D form. The star is where a group is joined. hPhe(3-Cl-4-CF3) = N[C@@H](CCc1ccc(C(F)(F)F)c(Cl)c1)C(=O)O; NPrPhe(4-CF3) = CCCN[C@@H](Cc1ccc(C(F)(F)F)cc1)C(=O)O; NMeGly(cPent) = CN[C@H](C(=O)O)C1CCCC1; NMeD = CN[C@@H](CC(=O)O)C(=O)O; NMeL = CN[C@@H](CC(C)C)C(=O)O; NMeS = CN[C@@H](CO)C(=O)O; Morpholide = C1CN(*)CCO1; Ac5c = NC1(C(=O)O)CCCC1; Sar = CNCC(=O)O
Each entry below lists one item and its recorded log10 Kd value.
result.type: log10 Kd (log10 of the value in nM)

# molecule, log10 Kd
rows = [
    ("CCOC[C@H]1C(=O)N[C@@H]([C@@H](C)CC)C(=O)N(C)CC(=O)N(C)[C@H]2C/C=C\\CCN(C2=O)[C@@H](Cc2ccc(C(F)(F)F)cc2)C(=O)N(C)CC(=O)N[C@@H](CCc2ccc(C(F)(F)F)c(OC)c2)C(=O)N2C[C@@H](C)C[C@H]2C(=O)N(C)C2(CCC2)C(=O)N(C)[C@@H](C2CCCC2)C(=O)N(C)[C@H](C(=O)N(C)C)CC(=O)N1C [PP2359]", -1.70),
    ("CC[C@H](C)[C@@H]1NC(=O)[C@H](CC)N(C)C(=O)C[C@@H](C(=O)N(C)C)N(C)C(=O)[C@H](C2CCCC2)N(C)C(=O)C2(CCC2)NC(=O)[C@H](COC)N(C)C(=O)[C@H](CCc2cc(F)c(C(F)(F)F)c(F)c2)NC(=O)CN(C)C(=O)[C@H](Cc2ccc(C(F)(F)F)cc2)N2CC/C=C\\C[C@@H](C2=O)N(C)C(=O)CN(C)C1=O [PP1145]", -0.68),
    ("CCOC[C@H]1C(=O)N[C@@H]([C@@H](C)CC)C(=O)N(C2CC2)CC(=O)N(C)[C@H]2C/C=C\\CCN(C2=O)[C@@H](CC2CCCCC2)C(=O)N(C)CC(=O)N[C@@H](CCc2ccc(C(F)(F)F)c(OC)c2)C(=O)N2C[C@@H](C)C[C@H]2C(=O)N(C)C2(CCC2)C(=O)N(C)[C@@H](C2CCCC2)C(=O)N(C)[C@H](C(=O)N(C)C)CC(=O)N1C [PP2373]", -0.18),
    ("CCC[C@H]1C(=O)N[C@@H](C2CCOCC2)C(=O)N(C)CC(=O)N(C)[C@H]2C/C=C\\CCN(C2=O)[C@@H](Cc2ccc(C(F)(F)F)cc2)C(=O)N(C)CC(=O)N[C@@H](CCc2ccc(C(F)(F)F)c(Cl)c2)C(=O)N2C[C@H](OCC)C[C@H]2C(=O)NC2(CC(C)(C)C2)C(=O)N(C)[C@@H](CC(C)(C)C)C(=O)N(C)[C@H](C(=O)N(C)C)CC(=O)N1C [PP3022]", -0.23),
    ("CC[C@H](C)[C@@H]1NC(=O)[C@H](CC(C)C)N(C)C(=O)C[C@@H](C(=O)N(C)CC)N(C)C(=O)[C@H](C2CCCC2)N(C)C(=O)C2(CC(C)(C)C2)NC(=O)[C@@H]2C[C@H](C)CN2C(=O)[C@H](CCc2ccc(C(F)(F)F)c(OC)c2)NC(=O)CN(C)C(=O)[C@H](Cc2ccc(C)cc2)N2CC/C=C\\C[C@@H](C2=O)N(C)C(=O)CN(C)C1=O [PP1906]", -0.82),
    ("CCC[C@H]1C(=O)N[C@@H]([C@@H](C)CC)C(=O)N2CCC[C@H]2C(=O)N(C)[C@H]2C/C=C\\CCN(C2=O)[C@@H](CC2CCC(F)(F)CC2)C(=O)N(C)CC(=O)N[C@@H](CCc2ccc(C(F)(F)F)c(OC)c2)C(=O)N2C[C@@H](C)C[C@H]2C(=O)N(C)C2(CCC2)C(=O)N(C)[C@@H](C2CCCC2)C(=O)N(C)[C@H](C(=O)N(C)C)CC(=O)N1C [PP2380]", -0.07),
    ("CCCN1CC(=O)N(C)[C@H]2C/C=C\\CCN(C2=O)[C@@H](Cc2ccc(C(F)(F)F)cc2)C(=O)N(C)CC(=O)N[C@@H](CCc2cc(F)c(C(F)(F)F)c(F)c2)C(=O)N2C[C@H](OCC)C[C@H]2C(=O)NC2(CCC2)C(=O)N(C)[C@@H](C2CCCC2)C(=O)N(C)[C@H](C(=O)N(C)C)CC(=O)N(C)[C@@H](CC)C(=O)N[C@@H]([C@@H](C)CC)C1=O [PP1053]", -0.64),
    ("CCO[C@@H]1C[C@H]2C(=O)N(C)C3(CCCC3)C(=O)N(C)[C@@H](C3CCCC3)C(=O)N(C)[C@H](C(=O)N(C)C)CC(=O)N(C)[C@@H](CC)C(=O)N[C@@H]([C@@H](C)CC)C(=O)N(C)CC(=O)N(C)[C@H]3C/C=C\\CCN(C3=O)[C@@H](Cc3ccc(C)cc3)C(=O)N(C)CC(=O)N[C@@H](CCc3cc(F)c(C(F)(F)F)c(F)c3)C(=O)N2C1 [PP1806]", -1.22),
    ("CCCN1C(=O)CN(C)C(=O)CN(C)C(=O)[C@H]([C@@H](C)CC)NC(=O)[C@H](CC(C)C)N(C)C(=O)C[C@@H](C(=O)N2CCOCC2)N(C)C(=O)[C@H](C2CCCC2)N(C)C(=O)C2(CCCC2)NC(=O)[C@H](COC)N(C)C(=O)[C@H](CCc2ccc(C(F)(F)F)c(Cl)c2)NC(=O)CN(C)C(=O)[C@@H]1Cc1ccc(C(F)(F)F)cc1 [PP1920] ([NMeL]I[Sar][Sar][NPrPhe(4-CF3)][Sar][hPhe(3-Cl-4-CF3)][NMeS](Me)[Ac5c][NMeGly(cPent)][NMeD]-Morpholide; lactam N-11)", -0.51),
    ("CCOC[C@H]1C(=O)N[C@@H]([C@@H](C)CC)C(=O)N(C)CC(=O)N(C)[C@H]2C/C=C\\CCN(C2=O)[C@@H](Cc2ccc(C(F)(F)F)cc2)C(=O)N(C)CC(=O)N[C@@H](CCc2cc(F)c(C(F)(F)F)c(F)c2)C(=O)N2C[C@@H](C)C[C@H]2C(=O)NC2(CC(C)(C)C2)C(=O)N(C)[C@@H](C2CCCC2)C(=O)N(C)[C@H](C(=O)N(C)CC)CC(=O)N1C [PP2042]", -0.85),
    ("CCO[C@@H]1C[C@H]2C(=O)NC3(CCC3)C(=O)N(C)[C@@H](C3CCCC3)C(=O)N(C)[C@H](C(=O)N(C)C)CC(=O)N(C)[C@@H](Cc3ccccc3C#N)C(=O)N[C@@H]([C@@H](C)CC)C(=O)N(C)CC(=O)N(C)[C@H]3CCCCCN(C3=O)[C@@H](Cc3ccc(F)cc3)C(=O)N(C)CC(=O)N[C@@H](CCc3cc(F)c(C(F)(F)F)c(F)c3)C(=O)N2C1 [PP1155]", -0.82),
]
